target-desc: Peroxisome proliferator-activated receptor delta (Homo sapiens, UniProt Q03181)
Sequence (Q03181 whole entry): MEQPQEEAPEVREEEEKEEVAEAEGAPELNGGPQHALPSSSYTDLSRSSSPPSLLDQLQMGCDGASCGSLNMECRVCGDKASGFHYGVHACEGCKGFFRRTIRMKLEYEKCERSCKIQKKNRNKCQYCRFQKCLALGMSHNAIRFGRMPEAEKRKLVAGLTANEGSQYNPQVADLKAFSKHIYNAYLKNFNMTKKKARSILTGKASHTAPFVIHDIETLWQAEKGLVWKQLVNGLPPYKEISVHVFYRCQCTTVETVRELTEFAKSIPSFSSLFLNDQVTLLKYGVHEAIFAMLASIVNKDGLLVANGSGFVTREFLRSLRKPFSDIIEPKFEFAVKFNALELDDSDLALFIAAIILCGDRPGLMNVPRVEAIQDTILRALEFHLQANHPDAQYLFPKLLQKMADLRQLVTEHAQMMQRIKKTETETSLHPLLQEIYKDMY
experiment-description: Binding affinity to bind to human Peroxisome proliferator activated receptor delta using scintillation proximity assay
property-measured: Ki (nM)
I only need the number, in nM, no unit after it.

Query: Need Ki of Cc1oc(-c2ccccc2)nc1CCOc1ccc(C[C@@H](C(=O)O)n2cccc2)cc1 , thanks.
Reply: 2500

Query: Need Ki of Cc1oc(-c2ccccc2)nc1CCOc1ccc(C[C@H](Nc2ccccc2C(=O)c2ccccc2)C(=O)O)cc1 [FARGLITAZAR] , thanks.
Reply: 1200

The measured values listed here are drawn from ChEMBL document CHEMBL1133869.
